Where these numbers come from: ChEMBL document CHEMBL1138862

tested on: Escherichia coli; test: Antibacterial activity against Escherichia coli W3110; type: functional
Property: inhibition zone (IZ) (mm)
The reply should contain only the number, in mm.

Give inhibition zone (IZ) for the following compound: O=P(O)(O)CC(c1ccccn1)P(=O)(O)O (configuration not stated)
0

Please list inhibition zone (IZ) recorded for the compound `Cc1ccc(C)c(COc2ccc(C)nc2NC(P(=O)(O)O)P(=O)(O)O)c1`
0

Return inhibition zone (IZ) for the following compound: `O=P(O)(O)C(Nc1ccc(I)cn1)P(=O)(O)O`
7

Give inhibition zone (IZ) for `CN(CCCCc1ccccc1)CCC(O)(P(=O)(O)O)P(=O)(O)O`
19

Return inhibition zone (IZ) (reported value) for this compound: CC(NC(P(=O)(O)O)P(=O)(O)O)c1cccc2ccccc12 (configuration not stated)
0

Quick one: give measured inhibition zone (IZ) for `Cc1cccc(CC(O)(P(=O)(O)O)P(=O)(O)O)c1`
0

Report inhibition zone (IZ) for NCCCCCC(O)(P(=O)(O)O)P(=O)(O)O [NERIDRONIC ACID]
0

Quote inhibition zone (IZ) reported for `CCCCCCCCCCC(O)(P(=O)(O)O)P(=O)(O)O` please.
0

Report measured inhibition zone (IZ); entry is `O=P(O)(O)C(Nc1ccc(Br)cn1)P(=O)(O)O`
12

Give the reported inhibition zone (IZ) for this compound. `CN(Cc1ccccc1)C(P(=O)(O)O)P(=O)(O)O`
0

Specify measured inhibition zone (IZ) for `O=P(O)(O)C(Nc1cccnc1Cl)P(=O)(O)O` .
0

Give the reported value of inhibition zone (IZ) for this record: NCCC(O)(P(=O)(O)O)P(=O)(O)O [PAMIDRONIC ACID]
0

Give inhibition zone (IZ) for the following compound: CCC(C)CNC(P(=O)(O)O)P(=O)(O)O (configuration not stated)
0

State, in one line, measured inhibition zone (IZ) of `CCCCCCCc1ccc(NC(P(=O)(O)O)P(=O)(O)O)cc1`
0

Identify measured inhibition zone (IZ) corresponding to O=C(N[C@H](CO)[C@H](O)c1ccc([N+](=O)[O-])cc1)C(Cl)Cl [CHLORAMPHENICOL]
24

Look up and state reported inhibition zone (IZ) for `CC(C)c1cccc(C(C)C)c1NC(P(=O)(O)O)P(=O)(O)O`
0

Provide only the value of recorded inhibition zone (IZ) for O=P(O)(O)C(N1CCSCC1)P(=O)(O)O [THIOMORPHOLINOMETHYLENEDIPHOSPHONIC ACID]
0

Note inhibition zone (IZ) for the compound shown: `CC(C)(C)c1cccc(NC(P(=O)(O)O)P(=O)(O)O)c1`
7

Identify the reported inhibition zone (IZ) for the following entry. `CCCCCCCCc1ccc(C(O)(P(=O)(O)O)P(=O)(O)O)cc1`
0

Indicate its recorded inhibition zone (IZ); the compound in question is `O=P(O)(O)C(Nc1cccc(Oc2ccccc2)c1)P(=O)(O)O`
0

Name the recorded inhibition zone (IZ) of the item `O=P(O)(O)C(Nc1cc(Cl)cc(Cl)c1)P(=O)(O)O` in your answer.
0

Hello, please tell me recorded inhibition zone (IZ) for this one: `O=P(O)(O)C(O)(Cc1cccc(Br)c1)P(=O)(O)O`
12

Entry `NCCCCC(O)(P(=O)(O)O)P(=O)(O)O` needs its inhibition zone (IZ) filled in; supply it.
0

Input `O=P(O)(O)C(O)(Cc1ccccn1)P(=O)(O)O` , output reported inhibition zone (IZ).
0

// fetch inhibition zone (IZ) given entry `Cc1cc(C)nc(NC(P(=O)(O)O)P(=O)(O)O)c1`
11

Tell me measured inhibition zone (IZ) for `CCc1ccc(NC(P(=O)(O)O)P(=O)(O)O)cc1` please.
0

Tell me its inhibition zone (IZ) given `Cc1ncccc1NC(P(=O)(O)O)P(=O)(O)O` as the entry.
7

Give recorded inhibition zone (IZ). `Nc1ccc(CC(O)(P(=O)(O)O)P(=O)(O)O)cc1`
0

Give recorded inhibition zone (IZ). `O=P(O)(O)C(N1CCCCC1)P(=O)(O)O`
0

Recall and state the measured inhibition zone (IZ) for O=P(O)(O)C(O)(Cc1cccnc1)P(=O)(O)O [RISEDRONIC ACID] .
0

For the compound `O=P(O)(O)C(O)(Cc1cccc(C(F)(F)F)c1)P(=O)(O)O` , give its reported inhibition zone (IZ).
7

Look up and report measured inhibition zone (IZ) for this entry: O=P(O)(O)CC(c1ccncc1)P(=O)(O)O (configuration not stated)
0

Give a short answer stating reported inhibition zone (IZ) for `O=P(O)(O)C(CNc1ccccn1)P(=O)(O)O` .
0

Read the entry NC[C@@H]1O[C@H](O[C@H]2[C@@H](O)[C@H](O[C@@H]3[C@@H](O)[C@H](N)C[C@H](N)[C@H]3O[C@H]3O[C@H](CN)[C@@H](O)[C@H](O)[C@H]3N)O[C@@H]2CO)[C@H](N)[C@@H](O)[C@@H]1O [FRAMYCETIN] and write its reported inhibition zone (IZ).
15

Please give the documented inhibition zone (IZ) of CCCCCCC(CCCC)C(O)(P(=O)(O)O)P(=O)(O)O (configuration not stated)
0

Output measured inhibition zone (IZ) for this item: `O=P(O)(O)C(Nc1ccc(Cl)cn1)P(=O)(O)O`
13

Give the reported inhibition zone (IZ) for this compound. `O=P(O)(O)C(Nc1ccc(-c2ccccc2)cc1)P(=O)(O)O`
9

###

Hi there, I'd appreciate the recorded inhibition zone (IZ) for every entry that follows.
system: Escherichia coli; assay: Antibacterial activity against Escherichia coli W3110; assay type: functional
In your response, put the unit directly after the numeric value.

Give the value of inhibition zone (IZ) reported for the following: `O=P(O)(O)C(N1CCCCCC1)P(=O)(O)O`
0 mm

Indicate its recorded inhibition zone (IZ); the molecule in question is CC1CCCN(C(P(=O)(O)O)P(=O)(O)O)C1 (stereo not given)
0 mm

Given the molecule `O=P(O)(O)C(O)(C1CC1)P(=O)(O)O` , write its reported inhibition zone (IZ).
0 mm

Check the records and state inhibition zone (IZ) for `CCCCCCCCCCCCCCCC(O)(P(=O)(O)O)P(=O)(O)O`
0 mm

Could you please provide reported inhibition zone (IZ) for `CCc1cccc(NC(P(=O)(O)O)P(=O)(O)O)n1` ? Thanks!
0 mm

###

Exercise: state measured inhibition zone (IZ) for each of the compounds provided.
tested on: Escherichia coli; assay: Antibacterial activity against Escherichia coli W3110; assay type: functional
Your answer is read as mm, so omit the unit and give the number.

Lab note: Escherichia coli assay, enter inhibition zone (IZ) for `O=P(O)(O)C(Nc1cccc(Cc2ccccc2)c1)P(=O)(O)O` here
7

Would you please give the reported inhibition zone (IZ) of `CCCCCCCCCC(O)(P(=O)(O)O)P(=O)(O)O` with Escherichia coli?
9

Provide inhibition zone (IZ), recorded with Escherichia coli, of `CC1CCN(C(P(=O)(O)O)P(=O)(O)O)CC1`
0

Jot down inhibition zone (IZ) (Escherichia coli) of `CCCN(CCC)C(P(=O)(O)O)P(=O)(O)O` .
0

Lab note: Escherichia coli assay, enter inhibition zone (IZ) for Cc1cccnc1NCC(P(=O)(O)O)S(=O)(=O)O (stereo unspecified) here
0

Enter recorded inhibition zone (IZ) with Escherichia coli for `O=P(O)(O)C(O)(Cc1ccncc1)P(=O)(O)O` here.
0
